- assayed_system: phosphoglycerate kinase 2 (PGK2) (Homo sapiens)
- Sequence (P07205 2-417): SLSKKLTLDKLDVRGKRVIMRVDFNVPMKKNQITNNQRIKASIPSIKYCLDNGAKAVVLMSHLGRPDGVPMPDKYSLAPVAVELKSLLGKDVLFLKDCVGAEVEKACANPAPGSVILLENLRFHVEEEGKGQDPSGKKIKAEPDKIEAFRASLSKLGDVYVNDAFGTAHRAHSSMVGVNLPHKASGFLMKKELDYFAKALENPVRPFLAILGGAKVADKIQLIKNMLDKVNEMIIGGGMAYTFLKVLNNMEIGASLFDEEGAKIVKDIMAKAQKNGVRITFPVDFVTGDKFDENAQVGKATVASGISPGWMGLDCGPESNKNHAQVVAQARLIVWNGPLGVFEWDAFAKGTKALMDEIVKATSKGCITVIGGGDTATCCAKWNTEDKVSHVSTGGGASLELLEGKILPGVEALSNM
readout_name: pKd
Numbers only, as −log10 of the molar value.

Query: I would be grateful if you could share the reported pKd for O=c1ccc2cc(O)c(O)cc2o1 .
Reply: 6.79

###

- assayed_system: glucose-6-phosphate isomerase (GPI) (Homo sapiens)
readout_name: pKd
Answers are plain numbers, as −log10 of the molar value.

Query: I would be grateful if you could share the reported pKd for O=c1ccc2cc(O)c(O)cc2o1 .
Reply: 6.89

###

- assayed_system: glycerol-3-phosphate dehydrogenase (GPD2) (Homo sapiens)
- Sequence (P43304 43-727): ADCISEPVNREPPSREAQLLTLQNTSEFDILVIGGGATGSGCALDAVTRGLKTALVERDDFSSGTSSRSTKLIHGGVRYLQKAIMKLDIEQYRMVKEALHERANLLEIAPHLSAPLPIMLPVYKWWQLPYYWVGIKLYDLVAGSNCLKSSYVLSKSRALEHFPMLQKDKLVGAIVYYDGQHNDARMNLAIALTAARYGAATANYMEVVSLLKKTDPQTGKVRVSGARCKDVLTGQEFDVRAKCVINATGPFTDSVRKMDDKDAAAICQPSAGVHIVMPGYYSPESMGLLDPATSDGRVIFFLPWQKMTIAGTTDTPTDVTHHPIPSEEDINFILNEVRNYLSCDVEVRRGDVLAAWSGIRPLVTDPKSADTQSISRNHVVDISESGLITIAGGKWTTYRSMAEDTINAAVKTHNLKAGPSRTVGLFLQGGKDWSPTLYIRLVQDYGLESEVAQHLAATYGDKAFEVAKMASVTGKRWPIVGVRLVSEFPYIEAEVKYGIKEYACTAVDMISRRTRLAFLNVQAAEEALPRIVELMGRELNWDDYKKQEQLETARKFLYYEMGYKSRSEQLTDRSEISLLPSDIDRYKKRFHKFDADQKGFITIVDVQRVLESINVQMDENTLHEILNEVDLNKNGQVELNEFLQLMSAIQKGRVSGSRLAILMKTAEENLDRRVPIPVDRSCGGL
readout_name: Kd

Query: I would be grateful if you could share the reported Kd for O=c1ccc2cc(O)c(O)cc2o1 .
Reply: 666 nM
